Target: GSPT1 (Homo sapiens (Human), UniProt P15170+Q96SW2)
Sequence (P15170 whole entry): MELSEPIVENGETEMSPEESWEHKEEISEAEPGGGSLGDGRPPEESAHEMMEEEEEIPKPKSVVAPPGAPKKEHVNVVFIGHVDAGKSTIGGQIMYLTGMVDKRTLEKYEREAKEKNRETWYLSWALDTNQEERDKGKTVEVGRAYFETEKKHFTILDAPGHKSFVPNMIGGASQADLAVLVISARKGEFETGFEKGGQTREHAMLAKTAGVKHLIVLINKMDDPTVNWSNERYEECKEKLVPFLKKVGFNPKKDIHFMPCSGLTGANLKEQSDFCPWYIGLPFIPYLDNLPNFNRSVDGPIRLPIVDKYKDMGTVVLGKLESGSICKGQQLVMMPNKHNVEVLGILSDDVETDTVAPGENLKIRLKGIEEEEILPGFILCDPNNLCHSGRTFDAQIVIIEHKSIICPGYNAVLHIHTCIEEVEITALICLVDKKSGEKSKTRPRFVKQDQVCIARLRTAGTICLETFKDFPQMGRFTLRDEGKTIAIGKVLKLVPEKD
Sequence (Q96SW2 whole entry): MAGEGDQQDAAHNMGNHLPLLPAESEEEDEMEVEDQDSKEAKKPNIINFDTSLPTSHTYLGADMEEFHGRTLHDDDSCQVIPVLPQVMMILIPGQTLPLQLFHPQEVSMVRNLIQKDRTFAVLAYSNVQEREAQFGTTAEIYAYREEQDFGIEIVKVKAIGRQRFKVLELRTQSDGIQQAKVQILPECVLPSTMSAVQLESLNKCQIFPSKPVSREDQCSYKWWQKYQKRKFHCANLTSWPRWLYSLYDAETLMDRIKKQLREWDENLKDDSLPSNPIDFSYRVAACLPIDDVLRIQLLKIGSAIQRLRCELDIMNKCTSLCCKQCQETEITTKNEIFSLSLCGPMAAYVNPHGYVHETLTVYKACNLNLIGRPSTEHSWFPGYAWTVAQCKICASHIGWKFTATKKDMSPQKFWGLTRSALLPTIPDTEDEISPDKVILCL
Sequence (Q16531 whole entry partner): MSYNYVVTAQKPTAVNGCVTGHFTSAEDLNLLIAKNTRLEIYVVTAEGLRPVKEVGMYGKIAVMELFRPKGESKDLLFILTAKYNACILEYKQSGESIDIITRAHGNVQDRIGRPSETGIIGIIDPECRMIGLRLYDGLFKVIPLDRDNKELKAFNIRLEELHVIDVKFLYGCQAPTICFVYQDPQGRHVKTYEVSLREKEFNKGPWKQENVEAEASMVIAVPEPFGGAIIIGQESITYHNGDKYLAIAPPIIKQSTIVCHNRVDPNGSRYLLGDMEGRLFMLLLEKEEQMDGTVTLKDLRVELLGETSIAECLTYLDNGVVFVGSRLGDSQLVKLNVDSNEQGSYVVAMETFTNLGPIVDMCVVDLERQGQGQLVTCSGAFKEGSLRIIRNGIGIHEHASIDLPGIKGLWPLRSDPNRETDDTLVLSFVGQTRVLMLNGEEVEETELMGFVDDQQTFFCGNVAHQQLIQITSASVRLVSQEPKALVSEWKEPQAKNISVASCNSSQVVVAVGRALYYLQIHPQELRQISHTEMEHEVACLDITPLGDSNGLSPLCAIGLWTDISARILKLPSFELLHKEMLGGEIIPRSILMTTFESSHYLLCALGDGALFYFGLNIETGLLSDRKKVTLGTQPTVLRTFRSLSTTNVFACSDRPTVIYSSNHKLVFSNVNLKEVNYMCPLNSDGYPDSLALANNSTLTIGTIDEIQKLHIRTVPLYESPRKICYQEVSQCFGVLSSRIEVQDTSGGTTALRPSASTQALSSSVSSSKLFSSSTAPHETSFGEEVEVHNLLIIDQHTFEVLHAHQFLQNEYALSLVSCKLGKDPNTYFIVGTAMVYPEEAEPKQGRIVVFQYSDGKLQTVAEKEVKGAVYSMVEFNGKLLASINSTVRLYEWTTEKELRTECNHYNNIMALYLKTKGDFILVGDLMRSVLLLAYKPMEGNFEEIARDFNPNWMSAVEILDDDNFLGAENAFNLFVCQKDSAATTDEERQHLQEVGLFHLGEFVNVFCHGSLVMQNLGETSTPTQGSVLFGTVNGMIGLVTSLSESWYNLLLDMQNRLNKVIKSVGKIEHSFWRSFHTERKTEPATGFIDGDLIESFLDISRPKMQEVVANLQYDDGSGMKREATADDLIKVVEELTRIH
Experiment: Immunofluorescence assay for GSPT1 degradation in CAL-Si cells
Assay type: cell-based
Settings: CAL-Si cells, treated 6 hours, read-out: Code, activity for GSPT1 degradation (DC50)
Protocol: The compounds were tested in an immunofluorescence assay for their activity to bind to degrade GSPT1. […] Primary antibody (human GSPT1, Sigma HPA052488) was diluted in blocking buffer (dil.1/300, 35 μl/well) and incubated with the cells overnight at 4° C. […] Fluorescence intensity of Alexa-Fluor 488 (GSPT1), Alexa-Fluor 647 (Actin) and DAPI (Nucleus) were measured. […] The Alexa-Fluor 488 (GSPT1) signal intensity in each cell was finally measured, in order to obtain a Mean intensity per cell. […]
Recorded DC50 by entry

The cases that follow already have their DC50 on record.
- compound: "O=C1CCC(N2Cc3c(F)cc(COC(=O)Nc4cc(Cl)cc(OC(F)F)c4)cc3C2=O)C(=O)N1 (stereo not shown)"
  DC50: "30 to 300 nM"
- compound: "Cc1ccccc1-c1ccc(NC(=O)OCc2cc(F)c3c(c2)C(=O)N(C2CCC(=O)NC2=O)C3)cn1 (stereo not shown)"
  DC50: "< 30 nM"

Q: Look up DC50 of O=C1CCC(N2Cc3c(F)cc(COC(=O)Nc4ccc(-c5ccccc5)nc4)cc3C2=O)C(=O)N1 (stereo not shown) and report it.
A: < 30 nM

Q: Quote DC50 reported for COc1cc(COC(=O)Nc2cc(F)cc(Cl)c2)cc2c1CN(C1CCC(=O)NC1=O)C2=O (stereo not shown) please.
A: < 30 nM

---

The following compounds are listed with their measured DC50 values.
Target: GSPT1 (Homo sapiens (Human), UniProt P15170+Q96SW2)
Test: Immunofluorescence assay for GSPT1 degradation in CAL-Si cells
Assay type: cell-based
Conditions: CAL-Si cells, treated 6 hours, read-out: Code, activity for GSPT1 degradation (DC50)

Use these answered entries as a reference point.
- compound: "COc1cc(COC(=O)Nc2ccc3c(c2)OCC3(C)C)cc2c1CN(C1CCC(=O)NC1=O)C2=O (stereo not shown)"
  measured: "< 30 nM"
- compound: "O=C1CCC(N2Cc3c(F)cc(COC(=O)Nc4cc(-c5ccccc5)ccn4)cc3C2=O)C(=O)N1 (stereo not shown)"
  measured: "30 to 300 nM"
- compound: "COc1cc(COC(=O)Nc2ccc(-c3ccccc3C)nc2)cc2c1CN(C1CCC(=O)NC1=O)C2=O (stereo not shown)"
  measured: "< 30 nM"
- compound: "COc1cc(COC(=O)Nc2ccc(F)c(OC(F)F)c2)cc2c1CN(C1CCC(=O)NC1=O)C2=O (stereo not shown)"
  measured: "30 to 300 nM"
- compound: "O=C1CCC(N2Cc3c(F)cc(COC(=O)Nc4cccc(OC5CC5)c4)cc3C2=O)C(=O)N1 (stereo not shown)"
  measured: "< 30 nM"
- compound: "COc1cc(COC(=O)Nc2cnc(-c3ccccc3)c(C)c2)cc2c1CN(C1CCC(=O)NC1=O)C2=O (stereo not shown)"
  measured: "< 30 nM"

Q: Note DC50 for the compound shown: COc1cc(COC(=O)Nc2ccc(-c3ccccc3F)nc2)cc2c1CN(C1CCC(=O)NC1=O)C2=O (stereo not shown)
A: < 30 nM

Q: Identify measured DC50 corresponding to Cc1ccc(NC(=O)OCc2cc(Br)c3c(c2)C(=O)N(C2CCC(=O)NC2=O)C3)cc1Cl (stereo not shown)
A: 30 to 300 nM

Q: Please give the documented DC50 of COc1cc(COC(=O)Nc2ccc(C(C)(C)C)nc2)cc2c1CN(C1CCC(=O)NC1=O)C2=O (stereo not shown)
A: < 30 nM

Q: Provide measured DC50 value, entry: CC(C)(C)c1cccc(NC(=O)OCc2cc(F)c3c(c2)C(=O)N(C2CCC(=O)NC2=O)C3)c1 (stereo not shown)
A: < 30 nM

Q: Quickly give me recorded DC50 for O=C1CCC(N2Cc3c(F)cc(COC(=O)Nc4cc(OC(F)(F)F)ccc4F)cc3C2=O)C(=O)N1 (stereo not shown)
A: 30 to 300 nM

Q: Determine its reported DC50: COc1cc(COC(=O)Nc2cccc(OC3CC3)c2)cc2c1CN(C1CCC(=O)NC1=O)C2=O (stereo not shown)
A: > 300 nM

Q: Fill in reported DC50 for this entry: O=C1CCC(N2Cc3c(F)cc(COC(=O)Nc4cc(F)cc(OC(F)F)c4)cc3C2=O)C(=O)N1 (stereo not shown)
A: 30 to 300 nM

Q: Provide only the value of recorded DC50 for Cc1cc(F)cc(NC(=O)OCc2cc(F)c3c(c2)C(=O)N(C2CCC(=O)NC2=O)C3)c1 (stereo not shown)
A: 30 to 300 nM

Q: Identify the reported DC50 for the following entry. COc1cc(COC(=O)Nc2cc(Cl)cc(OC(F)F)c2)cc2c1CN(C1CCC(=O)NC1=O)C2=O (stereo not shown)
A: < 30 nM

Q: Identify measured DC50 corresponding to O=C1CCC(N2Cc3c(F)cc(COC(=O)Nc4ccc(-c5ccccn5)cc4)cc3C2=O)C(=O)N1 (stereo not shown)
A: < 30 nM
